Tested on: SNB-75 CNS
test.description: NCI-60 one-dose screen, 48 h
stated.conditions: 10 µM unless noted
This is part of a sample that, as a whole, favours compounds with a hit. Of some 83,000 tested, about 20% had one in any assay. Activity calls are given as the source filed them. The calls were made as follows: active = growth percent below 10; inactive = the rest.
Valid outcomes are listed here; reply with one: active, inactive

molecule	assigned.class
COc1ccc(C2CC(c3ccc4ccccc4c3)=NN2/C=C2\SC(=S)N(NC(=O)Cc3ccccc3Nc3c(Cl)cccc3Cl)C2=O)cc1 (configuration not stated)	active
CS(=O)(=O)c1ccc(-n2nc(-c3ccc(Br)cc3)c3ccccc3c2=O)cc1	inactive
C=C1C(=O)O[C@H]2[C@H]1CC/C(COC(=O)NCCc1ccc(OC)c(OC)c1)=C\CC[C@@]1(C)O[C@@H]21	inactive
Cc1cc(N2CCSCC2)nc(NC2CCCC(Nc3ccnc4cc(Cl)ccc34)C2)n1 (configuration not stated)	active
CC1(C)CC[C@]2(C(=O)Nc3ccccn3)CC[C@]3(C)C(=CC[C@@H]4[C@@]5(C)C/C(=C/c6cccnc6)C(=O)C(C)(C)[C@@H]5CC[C@]43C)[C@H]2C1	inactive

Please state the recorded outcome for this molecule: COc1ccc(-c2nc3ccc(-c4nc5ccc(N6CCN(c7ccc(F)cc7)CC6)cc5[nH]4)cc3[nH]2)cc1OC inactive

Fill in: this test's call for COC(=O)c1ccc(NC(=O)c2ccc(-c3cccc([N+](=O)[O-])c3)o2)cc1 is ___ inactive

Look up the recorded call for CC(=O)O[C@H]1C(=O)[C@@]2(C)[C@H]([C@H](OC(=O)c3ccccc3)[C@]3(O)C[C@H](OC(=O)[C@H](OC(=O)CCC(=O)OC4CCC(S/N=C(N)/N=C(\N)N(C)C)CC4)[C@@H](NC(=O)c4ccccc4)c4ccccc4)C(C)=C1C3(C)C)[C@]1(OC(C)=O)CO[C@@H]1C[C@@H]2O (some centres not stated) in this test. active

Query: recorded result category for Fc1ccc2[nH]cc(SSc3c[nH]c4ccc(F)cc34)c2c1 in this test inactive

Check the results log: what was the call for O=c1cc(/C(=C2/C=CC=N2)c2ccc[nH]2)c2cc(Cl)ccc2o1 ? inactive

For this molecule, state the assay outcome: CC1=NN(c2nc(-c3ccc(Cl)cc3)c(C#N)c(N3CCOCC3)n2)C(=O)C1 inactive

* * *

System: UACC-257 melanoma
test.description: NCI-60 one-dose screen, 48 h
stated.conditions: 10 µM unless noted
About 83,000 compounds went through this panel and 20% of them were active in at least one assay; those are over-represented in the sample as a whole. Active and inactive are the calls of the source. How the source made its calls: active means growth percent below 10; inactive means the rest.
// one of class 1 (active), class 0 (inactive), no free text

Use the examples below as a reference point.
compound	assigned.class
COc1cc2c(cc1-c1c(C)noc1C)ncc1nc(-c3ccccn3)n([C@H](C)COC(F)F)c12	class 0
Cc1cc(C)nc(SC2=C(Nc3cccc(Cl)c3C)C(=O)N(Cc3ccccc3)C2=O)n1	class 0
CN1CCN(c2ccc(Nc3c4ccccc4nc4ccccc34)cc2)CC1	class 0
C(=N/Nc1ncc(-c2cc3cc(-c4ccccc4)ccc3o2)s1)/c1cccs1	class 0
O=C1c2ccccc2C(=O)c2c(N=Nc3[nH]c(=S)[nH]c3O)cccc21	class 0
COc1ccc(/C=N/C2=C(C#N)C(c3ccc(N(C)C)cc3)c3ccc4ccccc4c3O2)cc1 (centres undefined)	class 0

Each compound tested received a call. Report the one for CN1CCN(c2nc(NCCCCNc3ccnc4cc(Cl)ccc34)c3ccccc3n2)CC1 . class 1

# lookup: test call for CCNC(=O)Oc1ccc(/C(=C(\C)c2ccc(Cl)cc2)c2ccc(OCCN(CC)CC)cc2)cc1 class 1

* * *

Tested on: UO-31 renal
test.description: NCI-60 one-dose screen, 48 h
stated.conditions: 10 µM unless noted
About 83,000 compounds went through this panel and 20% of them were active in at least one assay; those are over-represented in the sample as a whole. Active and inactive are the calls of the source. Rule for the calls: active = growth percent below 10; inactive = the rest.
Result category, one only: class 1 for active, class 0 for inactive

Below, 4 compounds whose answers are already recorded.
> print(dat)
                                item.smiles  experimental.system  assigned.class
1  N#CCCN=Nc1c(O)[nH]c2ccc([N+](=O)[O-])cc12          UO-31 renal         class 0
2  O=C1Nc2cc(-c3ccc(O)cc3)ccc2/C1=C/c1ccc[nH]1          UO-31 renal         class 1
3  COc1ccc(-c2nc3ccc(-c4nc5ccc(N6CCN(c7ccccc7)CC6)cc5[nH]4)cc3[nH]2)cc1OC          UO-31 renal         class 0
4         NC(N)=N/N=C(/c1ccccc1)c1ccc(F)cc1          UO-31 renal         class 1

API: the following record is the query input.
Any idea what this test logged for Cc1cc(C)nc(SC2=C(Nc3ccc(O)cc3)C(=O)N(Cc3ccccc3)C2=O)n1 ? class 0

* * *

Tested on: NCI-H23 lung
test.description: NCI-60 one-dose screen, 48 h (100 = growth as untreated, 0 = no growth, -100 = all killed)
stated.conditions: 10 µM unless noted
The panel holds about 83,000 compounds, 20% with a hit somewhere; the sample as a whole holds those more often.
Classification field: class 1 = growth at or over 60%; class 0 = growth under 60%.

Would you please look over these solved cases?
> print(dat)
                                   molecule  assigned.class
1  COC(=O)c1cccc(NC(=O)c2ccc(-c3cccc(N)c3)o2)c1         class 1
2  CC1SC(c2ccc(N(C)C)cc2)N(NC(=O)C(O)(c2ccccc2)c2ccccc2)C1=O (stereo not given)         class 1
3  COc1cc2c(cc1O)CC[C@@H]1[C@@H]2CC[C@]2(C)[C@@H](OCCCN(C)C)CC[C@@H]12         class 0
4  O=C(/C=C/c1ccccc1)c1ccc(O)c(CN2CCN(c3cc4c(cc3F)c(=O)c(C(=O)O)cn4C3CC3)CC2)c1         class 0
5  CC(C)(CCCN=C(N)Nc1ccc(Cl)cc1)c1ccc(F)cc1         class 0
6   COc1ccc(C(=O)c2sc3nc(C)cc(C)c3c2N)cc1OC         class 1
7  Cc1cc(N2CCN(c3ccnc4cc(Cl)ccc34)CC2)nc(N2CCOCC2)n1         class 1
8  O=S(=O)(Nc1ccc(NS(=O)(=O)c2ccccc2)c(Cl)c1)c1ccccc1         class 1

Check the entry Cc1cc(N2CCCCCC2)nc(NC2CCCC(Nc3ccnc4cc(Cl)ccc34)C2)n1 (stereo not given) : does growth equal or exceed 60%? class 0

Determine whether this molecule has growth no lower than 60%: O=C(Oc1cccnc1)c1ccsc1Nc1ccnc(C(F)(F)F)c1 class 0

Dear colleague, could you confirm whether COc1cc2nc(N3CCCC3)nc(Nc3ccccc3)c2cc1OC has growth at or above 60%? class 0

Threshold query (growth >= 60%) on CCc1c(Nc2ccccc2C)nc(N)[nH]c1=O class 1

Please tell me: is the molecule O=[N+]([O-])c1ccc(Nc2nc(NCCN3CCOCC3)ncc2[N+](=O)[O-])cc1 at or over 60% in terms of growth? class 1

Dear colleague, could you confirm whether Oc1ccccc1-c1nnc(CNc2ccc(Cl)cc2)o1 has growth at or above 60%? class 0

* * *

Quick reference: growth of the listed items.
Tested on: NCI-H460 lung
test.description: NCI-60 one-dose screen, 48 h (100 = growth as untreated, 0 = no growth, -100 = all killed)
stated.conditions: 10 µM unless noted
This is part of a sample that, as a whole, favours compounds with a hit. Of some 83,000 tested, about 20% had one in any assay.
Number in %, nothing else.

As a guide, the following entries are already answered.
molecule	observed.property	obs.value
c1ccc(-c2cc3n4c(-c5ccccc5)nn(-c5ccccc5)c4cnc-3n2)cc1	growth	54.9
O=C(/C=C/c1cccc(Cl)c1)c1ccc(O)c(CN2CCN(c3cc4c(cc3F)c(=O)c(C(=O)O)cn4C3CC3)CC2)c1	growth	44
Cc1oc(-c2ccc(Cl)cc2Cl)cc1C(=O)Nc1nccs1	growth	60.7
COc1ccc(S(=O)(=O)N2CCCCC2)cc1NC(=O)c1[nH]c(C)c2c1CCCCC2=O	growth	34.8
CC(=O)c1cc2c(N)c(C(=O)Nc3cccc4ccccc34)sc2nc1C	growth	7.21
O=C(Cc1ccccc1Nc1c(Cl)cccc1Cl)NN1C(=O)/C(=C/c2ccc(Br)cc2)SC1=S	growth	104
COc1ccc(C2CC(c3ccc(Cl)cc3)=NN2/C=C2\SC(=S)N(NC(=O)Cc3ccccc3Nc3c(Cl)cccc3Cl)C2=O)cc1 (centres undefined)	growth	81.8
O=C(CN1CCCCC1)Nc1ccc2oc(=O)ccc2c1	growth	104

Please give the measured growth for this molecule: NCCNc1nc(Nc2ccc(-c3nc4ccccc4[nH]3)cc2)c2cn[nH]c2n1 54.9

Please look up its growth: CC(C)(C)CC(C)(C)c1ccc(OCCOCC[N+](C)(C)Cc2ccccc2)cc1 1.33

I would be grateful if you could share the reported growth for CN(C)CCCNc1c2ccccc2nc2ccccc12 . 97.7
